# Tested on: SK-MEL-2
# ASSAY_REMARKS: NCI tumour cell line growth inhibition, 48 h
The source made the active and inactive calls. No stated cut-off is given here; in the data, active = GI50 up to about 1.1 µM and inactive = higher.
Please respond with reported GI50 for every item in the list.

What the record says about COc1cccc(N2C(Cl)C(=O)C2c2c[nH]c3ccccc23)c1 (configuration not stated) : GI50 is > 100 µM (inactive)

What the record says about C[C@H](O)CCC(=O)c1ccoc1 : GI50 is > 100 µM (inactive)

What the record says about c1ccc2cc(OCC3CO3)c(OCC3CO3)cc2c1 (configuration not stated) : GI50 is 10.9 µM (inactive)

What the record says about CCCCCCCCCCCCCCCCSCC(COC)COP(=O)([O-])OCC[N+](C)(C)C (configuration not stated) : GI50 is 15.5 µM (inactive)

What the record says about CNC(=O)CN(CC(N)=O)C(N)=O : GI50 is > 100 µM (inactive)

What the record says about CCOP(=O)(OCC)/C(C#N)=C/c1cccn1C(C)C : GI50 is > 100 µM (inactive)

What the record says about COc1cccc(/N=N/C(=N\NC(=O)c2ccc(C)cc2)c2ccc(N(CCC#N)CCC#N)cc2C)c1 : GI50 is > 100 µM (inactive)

What the record says about O=C(O)CNS(=O)(=O)c1ccc(NC(=O)CI)cc1 : GI50 is 23.3 µM (inactive)

What the record says about COc1cc(/C=C/C2=NN(c3cccc(S(=O)(=O)O)c3)C3(C2)SCC(=O)N3c2nc3ccccc3s2)cc(OC)c1OC (configuration not stated) : GI50 is 42.1 µM (inactive)

What the record says about CCN(CC)CC(C(=O)Nc1c(C)cccc1C)/C(C)=N\NC(=O)c1ccncc1 (configuration not stated) : GI50 is > 100 µM (inactive)

What the record says about CCCN(CCC)C(=O)c1c([N+](=O)[O-])cc(C(F)(F)F)cc1[N+](=O)[O-] : GI50 is 39.4 µM (inactive)

What the record says about C=C1CN2CC(=C)CN(C1)CS(=O)(=O)N1CC(=C)CN(CC(=C)C1)S(=O)(=O)N1CC(=C)CN(CC(=C)C1)S(=O)(=O)C2 : GI50 is 38.4 µM (inactive)
